experiment: Displacement of [11,12-3H]ARTA from RARgamma; set-up: species or system Homo sapiens
pIC50: −log10 of the molar value.
METRIC: pIC50

Take a look at these entries with their results.
{"COMPOUND": "CC1=C(/C=C/C(C)=C/C=C/C(C)=C/C(=O)n2cncn2)C(C)(C)CCC1", "REPORTED VALUE": 7.10}
{"COMPOUND": "CC1=C(/C=C/C(C)=C/C=C/C(C)=C/C(=O)O)C(C)(C)CCC1", "REPORTED VALUE": 8.00}
{"COMPOUND": "CC1=C(/C=C/C(C)=C/C=C/C(C)=C/C(=O)O)C(C)(C)CCC1n1cnnc1 (racemic)", "REPORTED VALUE": 6.52}
{"COMPOUND": "CC1=C(/C=C/C(C)=C/C=C/C(C)=C/C(=O)O)C(C)(C)CCC1n1ccnc1 (racemic)", "REPORTED VALUE": 7.35}
{"COMPOUND": "CC1=C(/C=C/C(C)=C/C=C/C(C)=C/C(=O)n2ccnc2)C(C)(C)CCC1", "REPORTED VALUE": 6.30}

P = CC1=C(/C=C/C(C)=C/C=C/C(C)=C\C(=O)O)C(C)(C)CCC1n1ccnc1 (racemic)
Q = CC1=C(/C=C/C(C)=C/C=C/C(C)=C/C(=O)O)C(C)(C)CCC1n1cncn1 (racemic)
input: Field: entry with larger pIC50 (options P / Q ). Write down the label attached to your selection.
output: P

====

target: Cytochrome P450 26A1 (Homo sapiens); assay: Inhibition of ATRA-induced CYP26 in human T47D cells assessed as ATRA metabolism using [11.12-3H]-ATRA; format: functional, cell-based; conditions: t47d
Sequence (O43174 whole entry): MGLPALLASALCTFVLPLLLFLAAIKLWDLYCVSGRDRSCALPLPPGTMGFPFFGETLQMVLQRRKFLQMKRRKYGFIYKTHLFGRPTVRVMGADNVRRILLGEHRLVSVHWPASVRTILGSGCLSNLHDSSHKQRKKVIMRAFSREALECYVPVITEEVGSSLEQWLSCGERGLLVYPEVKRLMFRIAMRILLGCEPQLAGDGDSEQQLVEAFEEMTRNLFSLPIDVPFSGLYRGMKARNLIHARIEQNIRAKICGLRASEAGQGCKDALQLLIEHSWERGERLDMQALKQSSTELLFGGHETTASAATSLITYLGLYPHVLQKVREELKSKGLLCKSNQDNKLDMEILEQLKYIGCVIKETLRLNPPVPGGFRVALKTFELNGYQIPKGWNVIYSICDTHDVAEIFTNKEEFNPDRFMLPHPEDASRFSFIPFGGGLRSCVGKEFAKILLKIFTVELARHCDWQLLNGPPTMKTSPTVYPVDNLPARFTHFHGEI
METRIC: IC50 (µM)
// return numeric value only (unit: µM, not printed)

input: Request the reported IC50 associated with COC(=O)/C=C(C)/C=C/C=C(C)/C=C/C1=C(C)[C@H](n2ccnc2)CCC1(C)C (stereo in doubt; (-)-5)
output: 6

====

target: UniProt O43174; test: Inhibition of ATRA-induced CYP26 in human T47D cell microsome assessed as ATRA metabolism using [11.12-3H]-ATRA; format: functional, microsomes
METRIC: IC50 (nM)

The following molecules have reported results that may help.
{"MOLECULE": "COC(=O)/C=C(C)/C=C/C=C(C)/C=C/C1=C(C)[C@H](n2ccnc2)CCC1(C)C (stereo in doubt; (-)-5)", "IC50 / nM": 680}
{"MOLECULE": "COC(=O)/C=C(C)/C=C/C=C(C)/C=C/C1=C(C)C(n2ccnc2)CCC1(C)C (racemic)", "IC50 / nM": 40}

P = CC1=C(/C=C/C(C)=C/C=C/C(C)=C/C(=O)n2ccnc2)C(C)(C)CCC1n1ccnc1 (racemic)
Q = COC(=O)/C=C(C)/C=C/C=C(C)/C=C/C1=C(C)[C@H](n2ccnc2)CCC1(C)C (stereo in doubt; (+)-5)
R = CC1=C(/C=C/C(C)=C/C=C/C(C)=C/C(=O)O)C(C)(C)CCC1n1ccnc1 (racemic)
input: Arrange the 3 molecules by rising IC50, starting with the smallest. Answer format: the labels, in the requested order.
output: R, P, Q
(R: 2.4 nM, P: 5.2 nM, Q: 800 nM)

====

Molecular target: Retinoic acid receptor alpha (Homo sapiens)
Sequence (P10276 whole entry): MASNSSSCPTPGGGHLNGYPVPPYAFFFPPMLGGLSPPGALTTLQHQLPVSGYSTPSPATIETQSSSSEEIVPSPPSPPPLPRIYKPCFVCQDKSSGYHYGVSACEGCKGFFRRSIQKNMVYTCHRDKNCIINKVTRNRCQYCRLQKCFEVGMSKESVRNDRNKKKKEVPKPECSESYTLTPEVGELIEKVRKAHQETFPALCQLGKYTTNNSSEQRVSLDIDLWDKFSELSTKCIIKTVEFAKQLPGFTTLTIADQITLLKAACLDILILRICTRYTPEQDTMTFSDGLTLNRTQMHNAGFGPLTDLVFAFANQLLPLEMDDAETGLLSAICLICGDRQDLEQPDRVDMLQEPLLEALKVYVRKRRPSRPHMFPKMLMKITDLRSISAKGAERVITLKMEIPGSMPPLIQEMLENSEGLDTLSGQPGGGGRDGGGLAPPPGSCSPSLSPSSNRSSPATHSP
pIC50: −log10 of the molar value.
METRIC: pIC50

P = CC1=C(/C=C/C(C)=C/C=C/C(C)=C\C(=O)O)C(C)(C)CCC1n1ccnc1 (racemic)
Q = CC1=C(/C=C/C(C)=C/C=C/C(C)=C/C(=O)n2cncn2)C(C)(C)CCC1
input: I'm curious whether P or Q has the smaller pIC50 number. Which is it? Answer = label.
output: P
(P: 7.00, Q: 7.70)

Every entry's value here was drawn from ChEMBL document CHEMBL1149300.
